Test system: SN12C renal
METHOD SUMMARY: NCI-60 one-dose screen, 48 h
CONDITION SUMMARY: 10 µM unless noted
The panel holds about 83,000 compounds, 20% with a hit somewhere; the sample as a whole holds those more often. Active and inactive are the calls of the source. The calls were made as follows: active = growth percent below 10; inactive = the rest.
Labels: 1.0 = active, 0.0 = inactive

> print(dat)
                                    compound  target.desc  group
 1  Cc1ccc(/C=C2\CN(C(=O)CCN3CCC(=NO)CC3)C/C(=C\c3ccc(C)cc3)C2=O)cc1  SN12C renal    1.0
 2      C=C[C@@H]1C[C@H](O)Cc2c(C)cc(C)cc2N1  SN12C renal    0.0
 3  CCO/C=N/C1=C(C#N)C(c2ccc(Cl)cc2)c2c(c3ccc(C)cc3[nH]c2=O)O1 (stereo not given)  SN12C renal    0.0
 4  O=Nc1c(-c2cccc([N+](=O)[O-])c2)nc2ncccn12  SN12C renal    0.0
 5  Brc1ccc(-c2[nH]ncc2-c2c[nH]c3ccccc23)cc1  SN12C renal    0.0
 6     COc1ccc(C(=O)c2cc(OC)c3c(c2)OCO3)cc1O  SN12C renal    0.0
 7  O=[N+]([O-])c1cccc(-c2nc3sccn3c2-c2ccnc(NCCCNS(=O)(=O)c3ccc(C(F)(F)F)cc3)n2)c1  SN12C renal    0.0
 8                CCCCCCN1CSC(=S)N(CCCCCC)C1  SN12C renal    0.0
 9  CCCCCc1cc[n+](CC(=O)c2ccc([N+](=O)[O-])cc2)cc1  SN12C renal    0.0
10  COc1cc(C2C3=C(COC3=O)Nc3cc4c(cc32)CCC4)cc2c1OCO2 (stereo not given)  SN12C renal    0.0

====

System: A549/ATCC NSCLC
METHOD SUMMARY: NCI-60 one-dose screen, 48 h (100 = growth as untreated, 0 = no growth, -100 = all killed)
CONDITION SUMMARY: 10 µM unless noted
Compounds without any hit were thinned out: in the full panel of roughly 83,000, 20% have a hit.
ASSAY METRIC: growth (%)

> print(dat)
                                    compound  assay.metric  value.units  reading
 1  CCOC(=O)C1CCNC(=O)C1=O (stereo unspecified)        growth            %      109
 2                      NC(N)=Nc1nc2ccccc2o1        growth            %      109
 3   COc1ccc(NC(=O)c2cc(OC)c(OC)c(OC)c2)cc1O        growth            %     48.6
 4  COc1ccc(/C(C#N)=C/c2cc(OC)c(OC)c(OC)c2)cc1        growth            %     32.5
 5  COc1ccc(C2C=C(c3ccc(N)cc3)N=C3SC=CN32)cc1OC (stereo unspecified)        growth            %     99.7
 6  C=C1CCC2C3(C)COC(c4ccc(N(C)C)cc4)OC3CCC2(C)C1C/C=C1/C(=O)OCC1O (stereo unspecified)        growth            %       52
 7      O=c1[nH]c(-c2ccccc2)nc(CN2CCCCC2)c1O        growth            %      111
 8  Cc1ccc(S(=O)(=O)C2=C3C(=C(c4ccccc4)c4ccccc43)CN(S(=O)(=O)c3ccc(C)cc3)C2)cc1        growth            %     70.9
 9                        S=C1CC(=S)NC(=S)N1        growth            %      111
10  NC(=S)N/N=C1\CCCC(C(F)(F)F)C1 (stereo unspecified)        growth            %      100
11  C=C1CCC2C3(C)COC(C)(C)OC3CCC2(C)C1C/C=C1/C(=O)OCC1Oc1ccccc1OC (stereo unspecified)        growth            %     97.7
